The molecules below have reported pIC50 for NUAK1 (Homo sapiens, UniProt O60285).
pIC50: −log10 of the molar value.

Some molecules with recorded pIC50:
molecule="O=C1NCc2cccc(Nc3nc(Nc4ccc(N5[C@@H]6CC[C@H]5CNC6)cc4OC(F)F)ncc3C(F)(F)F)c21 [Compound I-70]" system_name="NUAK1 (Homo sapiens, UniProt O60285)" result="7.00 to 7.96"
molecule="CN1CCN(c2ccc(Nc3ncc(C(F)(F)F)c(Nc4cccc5c4C(=O)NC5)n3)c(Cl)c2F)CC1 [Compound I-36]" system_name="NUAK1 (Homo sapiens, UniProt O60285)" result="8.00 to 10.00"
molecule="O=C1NCc2cccc(Nc3nc(Nc4ccc(N5C[C@@H]6C[C@H]5CN6)cc4OC(F)F)ncc3Cl)c21 [Compound I-66]" system_name="NUAK1 (Homo sapiens, UniProt O60285)" result="7.00 to 7.96"
molecule="CCN1CCN(c2ccc(Nc3ncc(Cl)c(Nc4cccc5c4C(=O)NC5)n3)cc2F)CC1 [Compound I-4]" system_name="NUAK1 (Homo sapiens, UniProt O60285)" result="7.00 to 7.96"
molecule="CN1CCCN(C2CCN(c3ccc(Nc4ncc(C(F)(F)F)c(Nc5cccc6c5C(=O)NC6)n4)c(OC(F)F)c3)CC2)CC1 [Compound I-69]" system_name="NUAK1 (Homo sapiens, UniProt O60285)" result="7.00 to 7.96"

Could you now look at the following molecule, please?
# get_value(readout='pIC50', item= COc1cc2c(cc1Nc1ncc(Cl)c(Nc3cccc4c3C(=O)NC4)n1)CCN(C(C)C)C2 [Compound I-18] ) 7.00 to 7.96

----------
Measured pIC50 by item
# SYSTEM NAME: NUAK2 (h) (Homo sapiens)
# Construct: This assay was done radiometrically using full-length, recombinant enzyme
# Sequence (Q9H093 whole entry): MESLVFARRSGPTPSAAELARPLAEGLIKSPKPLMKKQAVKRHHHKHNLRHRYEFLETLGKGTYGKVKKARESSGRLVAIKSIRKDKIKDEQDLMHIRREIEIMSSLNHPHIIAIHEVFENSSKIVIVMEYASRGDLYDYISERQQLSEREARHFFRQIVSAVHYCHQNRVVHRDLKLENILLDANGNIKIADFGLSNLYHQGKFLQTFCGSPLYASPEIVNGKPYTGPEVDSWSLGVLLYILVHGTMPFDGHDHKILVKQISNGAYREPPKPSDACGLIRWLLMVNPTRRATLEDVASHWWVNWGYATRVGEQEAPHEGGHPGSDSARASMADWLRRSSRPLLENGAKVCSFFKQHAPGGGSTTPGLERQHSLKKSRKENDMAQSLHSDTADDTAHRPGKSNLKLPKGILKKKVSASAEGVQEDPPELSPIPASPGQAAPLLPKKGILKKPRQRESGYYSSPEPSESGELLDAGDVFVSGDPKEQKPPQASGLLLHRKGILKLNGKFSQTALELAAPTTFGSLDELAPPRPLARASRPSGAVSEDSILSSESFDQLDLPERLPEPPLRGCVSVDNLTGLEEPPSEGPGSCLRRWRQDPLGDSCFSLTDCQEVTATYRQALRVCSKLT
# TEST NAME: NUAK2 enzymatic assay (radiometric, Eurofins)
# ASSAY CONDITIONS: full-length recombinant enzyme
pIC50: −log10 of the molar value.

smiles_str=CC(C)N1C[C@@H]2C[C@H]1CN2c1ccc(Nc2ncc(C(F)(F)F)c(Nc3cccc4c3C(=O)NC4)n2)c(OC(F)F)c1 measure_name=pIC50 result="8.00 to 10.00"
smiles_str=COc1c(Nc2ncc(C(F)(F)F)c(Nc3cccc4c3C(=O)NC4)n2)ccc(N2CCC(N3CCN(C)CC3)CC2)c1F measure_name=pIC50 result="7.00 to 7.96"

# get_value(readout='pIC50', item= O=C1NCc2cccc(Nc3nc(Nc4ccc(N5CCOCC5)cc4OC(F)F)ncc3C(F)(F)F)c21 ) 7.00 to 7.96

COc1cc2c(cc1Nc1ncc(OC)c(Nc3cccc4c3C(=O)NC4)n1)CCNC2 , same question. 7.00 to 7.96

----------
# SYSTEM NAME: NUAK2 (h) (Homo sapiens)
# Construct: This assay was done radiometrically using full-length, recombinant enzyme; purchased Eurofins
# TEST NAME: NUAK2 enzymatic assay (radiometric, Eurofins)
# Assay type: biochemical
# ASSAY CONDITIONS: full-length recombinant enzyme
Measured IC50 by item

Some molecules with recorded IC50:
molecule="CCN1CCN(c2ccc(Nc3ncc(C(F)(F)F)c(Nc4cccc5c4C(=O)NC5)n3)c(OC(F)F)c2)CC1 [Compound I-78]" result="0.1 to 10 nM"
molecule="COc1cc(N2CCN(C)CC2)ccc1Nc1ncc(Cl)c(Nc2cccc3c2C(=O)NC3)n1 [Compound I-5]" result="0.1 to 10 nM"
molecule="COc1cc2c(cc1Nc1ncc(Cl)c(Nc3cccc4c3C(=O)NC4)n1)CCN(CCC(F)(F)F)C2 [Compound I-19]" result="11 to 100 nM"

# get_value(readout='IC50', item= COc1c(Nc2ncc(Cl)c(Nc3cccc4c3C(=O)NC4)n2)ccc(N2C[C@H]3CN(C)C[C@H]3C2)c1F [Compound I-29] ) 11 to 100 nM

O=C1NCc2cccc(Nc3nc(Nc4cc5c(cc4Cl)CNCC5)ncc3C(F)(F)F)c21 [Compound I-52] , same question. 11 to 100 nM
